Test: in vitro
Settings: human
Numbered stars: 1 amine (or outer) side, 2 acyl side, 3 side chain; on linkers, the order of the positions; unused ones are H or OH. Bridge positions count the residues as written; N and C are the ends. Square brackets hold non-standard residues; d marks the D form. Peptide text beside a SMILES is read from it. X2 = CN1CCN(CCCN(CC(=O)[*:2])[*:1])CC1; 2Nal = N[C@@H](Cc1ccc2ccccc2c1)C(=O)O; Cit = NC(=O)NCCC[C@H](N)C(=O)O
RECORDED METRIC: GI50 at 48 h (µM)
Answer in µM, number only, no unit symbol.

Return reported GI50 at 48 h; argument: CN1CCN(CCCN2CC(=O)N[C@@H](Cc3ccc4ccccc4c3)C(=O)N[C@H]3CSSC[C@H](NC(=O)[C@H](CCCNC(N)=O)NC(=O)[C@H](CCCNC(=N)N)NC(=O)[C@H](Cc4ccc(O)cc4)NC(=O)[C@@H]4CCCN4C(=O)[C@H]4CCCN4C(=O)[C@H](CCCCN)NC(=O)[C@H](CCCNC(N)=O)NC(=O)[C@H](Cc4ccc(O)cc4)NC3=O)C(=O)N[C@@H](CCCNC(=N)N)C(=O)NCC(=O)N3CCC[C@@H]3C(=O)N[C@@H](CCCNC(=N)N)C2=O)CC1 [Ex. 126] (cyclo(YR[Cit]CRG[dP]R[X2][2Nal]CY[Cit]K[dP]P); disulfide 4-11) 85

---

Here, each record is paired with measured CC50 at 48 h data.
Assay: Cytotoxicity assay (MTT reduction), HELA cells;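 also: MTT reduction read as absorbance at 595 nm, blank-corrected and expressed as percent growth relative to the time-zero cell reading, triplicate wells per concentration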
Settings: human, HELA cells (Acc57)
Bridge positions count the residues as written; N and C are the ends. Square brackets hold non-standard residues; d marks the D form. Peptide text beside a SMILES is read from it. 2Nal = N[C@@H](Cc1ccc2ccccc2c1)C(=O)O; Cit = NC(=O)NCCC[C@H](N)C(=O)O
State the answer as a number, implicitly in µM.

MOLECULE: CC(C)[C@@H]1NC(=O)[C@H](CCCNC(=N)N)NC(=O)[C@@H]2CSSC[C@H](NC(=O)[C@H](Cc3ccc4ccccc4c3)NC(=O)[C@H](CCCNC(=N)N)NC(=O)[C@H](CCCNC(=N)N)NC(=O)CNC1=O)C(=O)N[C@@H](Cc1ccc(O)cc1)C(=O)N[C@@H](CCCNC(N)=O)C(=O)N[C@@H](CCCCN)C(=O)N1CCC[C@@H]1C(=O)N1CCC[C@H]1C(=O)N[C@@H](Cc1ccc(O)cc1)C(=O)N[C@@H](CCCNC(=N)N)C(=O)N[C@@H](CCCNC(N)=O)C(=O)N2 [compound 53] (cyclo(YR[Cit]CRVGRR[2Nal]CY[Cit]K[dP]P); disulfide 4-11)
RESULT UNIT: µM
CC50 at 48 h: 86

What does the record list as CC50 at 48 h for N=C(N)NCCC[C@@H]1NC(=O)CNC(=O)CNC(=O)[C@H](CCCNC(=N)N)NC(=O)[C@@H]2CSSC[C@H](NC(=O)[C@H](Cc3ccc4ccccc4c3)NC(=O)[C@H](CCCNC(=N)N)NC1=O)C(=O)N[C@@H](Cc1ccc(O)cc1)C(=O)N[C@@H](CCCNC(N)=O)C(=O)N[C@@H](CCCCN)C(=O)N1CCC[C@@H]1C(=O)N1CCC[C@H]1C(=O)N[C@@H](Cc1ccc(O)cc1)C(=O)N[C@@H](CCCNC(=N)N)C(=O)N[C@@H](CCCNC(N)=O)C(=O)N2 [Ex. 52] (cyclo(YR[Cit]CRGGRR[2Nal]CY[Cit]K[dP]P); disulfide 4-11) ? 99

---

Molecular target: CXCR4 (Homo sapiens)
Sequence (P61073 whole entry): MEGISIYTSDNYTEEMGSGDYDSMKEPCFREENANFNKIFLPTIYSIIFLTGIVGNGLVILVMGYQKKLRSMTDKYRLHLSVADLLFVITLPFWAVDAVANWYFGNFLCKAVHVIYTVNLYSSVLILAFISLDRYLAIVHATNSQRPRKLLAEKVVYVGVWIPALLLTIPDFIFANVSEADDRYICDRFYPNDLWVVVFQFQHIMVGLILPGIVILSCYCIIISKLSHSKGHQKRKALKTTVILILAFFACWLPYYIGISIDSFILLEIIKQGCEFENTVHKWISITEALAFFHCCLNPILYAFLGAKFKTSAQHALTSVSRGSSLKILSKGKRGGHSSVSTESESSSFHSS
Assay: Ca2+-assay method 2 (Flexstation, SDF-1 induced calcium mobilization)
Assay type: cell-based
Parameters: expressed in transfected cells; host or cells: mouse pre-B cell line 300-19
Settings: method 2 (Ex. 54-160), mouse pre-B cell line 300-19 with human CXCR4, 10 nM SDF-1; read-out: IC50 (nM) Ca^2+ assay
Bridge positions count the residues as written; N and C are the ends. Square brackets hold non-standard residues; d marks the D form. Peptide text beside a SMILES is read from it. 2Nal = N[C@@H](Cc1ccc2ccccc2c1)C(=O)O; 4Pal = N[C@@H](Cc1ccncc1)C(=O)O; Cit = NC(=O)NCCC[C@H](N)C(=O)O
RECORDED METRIC: log10 IC50 (log10 of the value in nM)
// do not treat as linear: log10 of IC50, unit nM

Reference set (6 entries):
COMPOUND: CC(C)C[C@@H]1NC(=O)[C@H](Cc2ccc(O)cc2)NC(=O)[C@@H]2CSSC[C@H](NC(=O)[C@H](CCCNC(N)=O)NC(=O)[C@H](CCCNC(=N)N)NC(=O)[C@H](Cc3ccc(O)cc3)NC(=O)[C@@H]3CCCN3C(=O)[C@H]3CCCN3C(=O)[C@H](CCCCN)NC1=O)C(=O)N[C@@H](CCCNC(=N)N)C(=O)NCC(=O)N1CCC[C@@H]1C(=O)N[C@@H](CCCNC(=N)N)C(=O)N[C@@H](CCCNC(=N)N)C(=O)N[C@@H](Cc1ccc3ccccc3c1)C(=O)N2 [Ex. 82] (cyclo(YR[Cit]CRG[dP]RR[2Nal]CYLK[dP]P); disulfide 4-11)
log10 IC50: 0.68
--
COMPOUND: N=C(N)NCCC[C@@H]1NC(=O)[C@@H]2CSSC[C@H](NC(=O)[C@H](Cc3ccc4ccccc4c3)NC(=O)[C@H](CCCNC(=N)N)NC(=O)[C@H](CCCNC(=N)N)NC(=O)[C@H]3CCCN3C(=O)CNC1=O)C(=O)N[C@@H](Cc1ccc(O)cc1)C(=O)N[C@@H](CC(N)=O)C(=O)N[C@@H](CCCCN)C(=O)N1CCC[C@@H]1C(=O)N1CCC[C@H]1C(=O)N[C@@H](Cc1ccc(O)cc1)C(=O)N[C@@H](CCCNC(=N)N)C(=O)N[C@@H](CCCNC(N)=O)C(=O)N2 [Ex. 77] (cyclo(YR[Cit]CRG[dP]RR[2Nal]CYNK[dP]P); disulfide 4-11)
log10 IC50: 0.85
--
COMPOUND: N=C(N)NCCC[C@@H]1NC(=O)[C@@H]2CSSC[C@H](NC(=O)[C@H](Cc3ccc4ccccc4c3)NC(=O)[C@H](CCCNC(=N)N)NC(=O)[C@H](CCCNC(=N)N)NC(=O)[C@H]3CCCN3C(=O)CNC1=O)C(=O)N[C@@H](Cc1ccc(O)cc1)C(=O)N[C@@H](CCC(N)=O)C(=O)N[C@@H](CCCCN)C(=O)N1CCC[C@@H]1C(=O)N1CCC[C@H]1C(=O)N[C@@H](Cc1ccc(O)cc1)C(=O)N[C@@H](CCCNC(=N)N)C(=O)N[C@@H](CC(N)=O)C(=O)N2 [Ex. 92] (cyclo(YRNCRG[dP]RR[2Nal]CYQK[dP]P); disulfide 4-11)
log10 IC50: 0.04
--
COMPOUND: C[C@@H](O)[C@@H]1NC(=O)[C@H](Cc2ccncc2)NC(=O)[C@H](Cc2ccc(O)cc2)NC(=O)[C@@H]2CCCN2C(=O)[C@H]2CCCN2C(=O)[C@H](CCCCN)NC(=O)[C@H](CCC(N)=O)NC(=O)[C@H](Cc2ccc(O)cc2)NC(=O)[C@@H]2CSSC[C@H](NC1=O)C(=O)N[C@@H](CCCNC(=N)N)C(=O)NCC(=O)N1CCC[C@@H]1C(=O)N[C@@H](CCCNC(=N)N)C(=O)N[C@@H](CCCNC(=N)N)C(=O)N[C@@H](Cc1c[nH]c3ccccc13)C(=O)N2 [Ex. 119] (cyclo(Y[4Pal]TCRG[dP]RRWCYQK[dP]P); disulfide 4-11)
log10 IC50: 0.97
--
COMPOUND: N=C(N)NCCC[C@@H]1NC(=O)[C@@H]2CSSC[C@H](NC(=O)[C@H](Cc3c[nH]c4ccccc34)NC(=O)[C@H](CCCNC(=N)N)NC(=O)[C@H](CCCNC(=N)N)NC(=O)[C@H]3CCCN3C(=O)CNC1=O)C(=O)N[C@@H](Cc1ccc(O)cc1)C(=O)N[C@@H](CCCNC(N)=O)C(=O)N[C@@H](CC(=O)O)C(=O)N1CCC[C@@H]1C(=O)N1CCC[C@H]1C(=O)N[C@@H](Cc1ccc(O)cc1)C(=O)N[C@@H](CCCNC(=N)N)C(=O)N[C@@H](CO)C(=O)N2 [Ex. 102] (cyclo(YRSCRG[dP]RRWCY[Cit]D[dP]P); disulfide 4-11)
log10 IC50: 0.90
--
COMPOUND: C[C@@H]1NC(=O)[C@H](CCC(N)=O)NC(=O)[C@H](Cc2ccc(O)cc2)NC(=O)[C@@H]2CSSC[C@H](NC(=O)[C@H](CCCNC(N)=O)NC(=O)[C@H](CCCNC(=N)N)NC(=O)[C@H](Cc3ccc(O)cc3)NC(=O)[C@@H]3CCCN3C(=O)[C@H]3CCCN3C1=O)C(=O)N[C@@H](CCCNC(=N)N)C(=O)NCC(=O)N1CCC[C@@H]1C(=O)N[C@@H](CCCNC(=N)N)C(=O)N[C@@H](CCCNC(=N)N)C(=O)N[C@@H](Cc1ccc3ccccc3c1)C(=O)N2 [Ex. 86] (cyclo(YR[Cit]CRG[dP]RR[2Nal]CYQA[dP]P); disulfide 4-11)
log10 IC50: -0.16

Quick one: log10 IC50 for N=C(N)NCCC[C@@H]1NC(=O)[C@@H]2CSSC[C@H](NC(=O)[C@H](Cc3ccc4ccccc4c3)NC(=O)[C@H](CCCNC(=N)N)NC(=O)[C@H](CCCNC(=N)N)NC(=O)[C@H]3CCCN3C(=O)CNC1=O)C(=O)N[C@@H](Cc1ccc(O)cc1)C(=O)N[C@@H](CCC(N)=O)C(=O)N[C@@H](CCC(N)=O)C(=O)N1CCC[C@@H]1C(=O)N1CCC[C@H]1C(=O)N[C@@H](Cc1ccc(O)cc1)C(=O)N[C@@H](CCCNC(=N)N)C(=O)N[C@@H](CCCNC(N)=O)C(=O)N2 [Ex. 60] (cyclo(YR[Cit]CRG[dP]RR[2Nal]CYQQ[dP]P); disulfide 4-11) ? -0.74

log10 IC50 lookup needed for N=C(N)NCCC[C@@H]1NC(=O)[C@@H]2CSSC[C@H](NC(=O)[C@H](Cc3ccc4ccccc4c3)NC(=O)[C@H](CCCNC(=N)N)NC(=O)[C@H](CCCNC(=N)N)NC(=O)[C@H]3CCCN3C(=O)CNC1=O)C(=O)N[C@@H](Cc1ccc(O)cc1)C(=O)N[C@@H](CCC(N)=O)C(=O)N[C@@H](CCCCN)C(=O)N1CCC[C@@H]1C(=O)N1CCC[C@H]1C(=O)N[C@@H](Cc1c[nH]c3ccccc13)C(=O)N[C@@H](CCCNC(=N)N)C(=O)N[C@@H](CCCNC(N)=O)C(=O)N2 [Ex. 66] (cyclo(WR[Cit]CRG[dP]RR[2Nal]CYQK[dP]P); disulfide 4-11) , thanks. 0.58

Data provenance is patent US8895695B2.
